Tested on: MDA-MB-231
Assay: Antiproliferative activity against human MDA-MB-231 cells after 72 hrs by MTT assay
Type: functional, cell-based
Conditions: MDA-MB-231, 72 h
Readout Label: IC50
Please don't drop the unit; write it after the number.

Worked cases, answers included:
CC(C)(O)[C@@H]1CC[C@]2(C)[C@H](CC[C@@]3(C)[C@H]2CC[C@H]2Cc4c([nH]c5ccccc45)[C@@]23C)O1 [PASPALINE] | 12.4 µM
C=C1Cc2ccc3[nH]c4c5c3c2[C@H]2[C@@H]1C[C@@H]2C(C)(C)O[C@H]5[C@@H]1CC[C@@]2(O)[C@@]35O[C@@H]3[C@@H](O)[C@@H](C(=C)C)O[C@H]5CC[C@]2(C)[C@@]41C [PENITREM B] | 13.7 µM
C=C(C)[C@H]1O[C@H]2CC[C@@]3(C)[C@@](O)(CC[C@H]4[C@@H]5OC(C)(C)[C@H]6C[C@@H]7C(=C)Cc8c(Br)cc9[nH]c(c5c9c8[C@@]76O)[C@@]43C)[C@]23O[C@@H]3[C@H]1O | 8.5 µM

In: Find IC50 (MDA-MB-231) for the entry C=C1Cc2c(Cl)cc3[nH]c4c5c3c2[C@H]2[C@@H]1C[C@@H]2C(C)(C)O[C@H]5[C@@H]1CC[C@@]2(O)[C@@]35O[C@@H]3[C@@H](O)[C@@H](C(=C)C)O[C@H]5CC[C@]2(C)[C@@]41C [PENITREM F]
Out: 13.8 µM

In: Try this compound next: C=C1Cc2c(Br)cc3[nH]c4c5c3c2[C@H]2[C@@H]1C[C@@H]2C(C)(C)O[C@H]5[C@@H]1CC[C@@]2(O)[C@@]35O[C@@H]3[C@@H](O)[C@@H](C(=C)C)O[C@H]5CC[C@]2(C)[C@]41C
Out: 18.8 µM

---

Tested on: MCF7
Test: Antiproliferative activity against human MCF7 cells after 72 hrs by MTT assay
Format: functional, cell-based
Details: MCF7, 72 h
Readout Label: IC50 (µM)
Reply numerically in µM, unit not repeated.

Example molecules with recorded IC50:
C=C1Cc2ccc3[nH]c4c5c3c2[C@H]2[C@@H]1C[C@@H]2C(C)(C)O[C@H]5[C@@H]1CC[C@@]2(O)[C@@]35O[C@@H]3[C@@H](O)[C@@H](C(=C)C)O[C@H]5CC[C@]2(C)[C@@]41C [PENITREM B] | 5.5
C=C1Cc2ccc3[nH]c4c5c3c2[C@H]2[C@@H]1C[C@H]2C(C)(C)O[C@H]5[C@@H]1CC[C@@]2(O)C3=C[C@@H](O)[C@@H](C(=C)C)O[C@H]3CC[C@]2(C)[C@@]41C [PENITREM D] | 8.3
C=C(C)[C@H]1O[C@H]2CC[C@@]3(C)[C@@](O)(CC[C@H]4[C@@H]5OC(C)(C)[C@H]6C[C@@H]7C(=C)Cc8c(Br)cc9[nH]c(c5c9c8[C@@]76O)[C@@]43C)[C@]23O[C@@H]3[C@H]1O | 16.7
C=C(C)[C@H]1O[C@H]2CC[C@@]3(C)[C@@](O)(CC[C@H]4[C@@H]5OC(C)(C)[C@H]6C[C@@H]7C(=C)Cc8ccc9[nH]c(c5c9c8[C@@]76O)[C@@]43C)[C@]23O[C@@H]3[C@H]1O | 17.5
CC(C)(O)[C@@H]1CC[C@]2(C)[C@H](CC[C@@]3(C)[C@H]2CC[C@H]2Cc4c([nH]c5ccccc45)[C@@]23C)O1 [PASPALINE] | 12.8

In: // lookup IC50 for C=C1Cc2c(Br)cc3[nH]c4c5c3c2[C@H]2[C@@H]1C[C@@H]2C(C)(C)O[C@H]5[C@@H]1CC[C@@]2(O)[C@@]35O[C@@H]3[C@@H](O)[C@@H](C(=C)C)O[C@H]5CC[C@]2(C)[C@]41C
Out: 19.3

In: Follow-up entry: C=C1Cc2c(Cl)cc3[nH]c4c5c3c2[C@H]2[C@@H]1C[C@@H]2C(C)(C)O[C@H]5[C@@H]1CC[C@@]2(O)[C@@]35O[C@@H]3[C@@H](O)[C@@H](C(=C)C)O[C@H]5CC[C@]2(C)[C@@]41C [PENITREM F]
Out: 15

In: Let us now turn to CC(C)=CCC[C@]1(C)[C@@H](O)CC[C@@]2(C)[C@H]1CC[C@H]1Cc3c([nH]c4ccccc34)[C@@]12C [EMINDOLE SB]
Out: 10.1
